Target: protein farnesyltransferase (Rattus norvegicus, UniProt Q02293+Q04631)
Construct: The enzyme is purified according to Reiss, Y., et al., Cell, 62: 81-88 (1990), utilizing steps one through three; from tissue; host or cells: rat brain
Sequence (Q02293 whole entry, one chain of several): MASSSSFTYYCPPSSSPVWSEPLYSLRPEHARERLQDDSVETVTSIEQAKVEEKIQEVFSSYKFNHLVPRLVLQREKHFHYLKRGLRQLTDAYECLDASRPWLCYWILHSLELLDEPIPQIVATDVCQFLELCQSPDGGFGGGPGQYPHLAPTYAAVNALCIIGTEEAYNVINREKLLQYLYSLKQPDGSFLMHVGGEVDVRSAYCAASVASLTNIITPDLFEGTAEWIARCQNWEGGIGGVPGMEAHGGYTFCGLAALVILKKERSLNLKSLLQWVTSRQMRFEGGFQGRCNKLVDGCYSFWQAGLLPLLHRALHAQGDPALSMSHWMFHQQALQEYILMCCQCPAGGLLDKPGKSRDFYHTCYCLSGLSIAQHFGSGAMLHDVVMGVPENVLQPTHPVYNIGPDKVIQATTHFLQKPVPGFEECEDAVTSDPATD
Assay: Inhibition of farnesyltransferase (scintillation proximity assay, rat brain enzyme, biotin-K Ras B fragment substrate)
Assay type: biochemical
Conditions: 1 × 10^-7 M (Table 3)
# % inhibition of farnesyltransferase at 1 × 10^-7 M per record follows
Measurement Type: % inhibition of farnesyltransferase at 1 × 10^-7 M

# Smiles, Result
measured = [
    ("CSCC[C@H](NC(=O)c1ccc(CSc2ccc3ccccc3c2)cc1-c1ccccc1C)C(=O)O", "93%"),
    ("CSCC[C@H](NC(=O)c1ccc(COCc2ccc(-c3ccccc3F)o2)cc1-c1ccccc1C)C(=O)[O-].[Li+]", "89%"),
    ("CSCC[C@H](NC(=O)c1ccc(COCCc2ccc3ccccc3c2)cc1-c1ccccc1C)C(=O)[O-].[Li+]", "86%"),
    ("CSCC[C@H](NC(=O)c1ccc(COCC2CCCCC2)cc1-c1ccccc1C)C(=O)[O-].[Li+]", "96%"),
]

----------
Target: protein farnesyltransferase (Rattus norvegicus, UniProt Q02293+Q04631)
Construct: The enzyme is purified according to Reiss, Y., et al., Cell, 62: 81-88 (1990), utilizing steps one through three; from tissue; host or cells: rat brain
Experiment: Inhibition of farnesyltransferase (scintillation proximity assay, rat brain enzyme, biotin-K Ras B fragment substrate)
Format: biochemical
Conditions: 1 × 10^-6 M (Table 2)
Measurement Type: % inhibition of farnesyltransferase at 1 × 10^-6 M (%)

# Compound, Measured Number
data = [
    ("CSCC[C@H](NC(=O)c1ccc(COCC(CC2CCCCC2)CC2CCCCC2)cc1-c1ccccc1C)C(=O)O", 95),
    ("CCOC(=O)N1CCC(NCc2ccc(C(=O)N[C@@H](CCSC)C(=O)[O-])c(-c3ccccc3C)c2)CC1.[Li+]", 72),
    ("CSCC[C@H](NC(=O)c1ccc(CN(C(=O)c2ccccc2)C(CC2CCCCC2)CC2CCCCC2)cc1-c1ccccc1C)C(=O)O", 42),
    ("CSCC[C@H](NC(=O)c1ccc(COCc2ccccc2)cc1-c1ccccc1)C(=O)O", 70),
    ("CSCC[C@H](NC(=O)c1ccc(CNCC(O)CO)cc1-c1ccccc1)C(=O)O (some centres unmarked)", 43),
    ("CSCC[C@H](NC(=O)c1ccc(CN(Cc2cncs2)S(C)(=O)=O)cc1-c1ccccc1C)C(=O)O", 95),
    ("CCc1nnc(NCc2ccc(C(=O)N[C@@H](CCSC)C(=O)O)c(-c3ccccc3C)c2)s1", 87),
    ("CSCC[C@H](NC(=O)c1ccc(CNCCN2CCCC2)cc1-c1ccccc1)C(=O)O", 34),
]

----------
Target: protein farnesyltransferase (Rattus norvegicus, UniProt Q02293+Q04631)
Construct: The enzyme is purified according to Reiss, Y., et al., Cell, 62: 81-88 (1990), utilizing steps one through three; from tissue; host or cells: rat brain
Experiment: Inhibition of farnesyltransferase (scintillation proximity assay, rat brain enzyme, biotin-K Ras B fragment substrate)
Type: biochemical
Details: 1 × 10^-8 M (Table 4)
Experimental: The ability of the compounds of the invention to inhibit protein farnesyltransferase or protein geranylgeranyltransferase can be measured according to the method of Moores, et al., J. Biol. Chem. 266: 14603 (1991) or the method of Vogt, et al., J. Biol. Chem. 270:660-664 (1995). […] In addition, in vitro inhibition of protein farnesyltransferase may be measured by the following procedure. […] The % inhibition of protein farnesyltransferase was determined for representative compounds of the invention.
Each entry gets No if its % inhibition of farnesyltransferase at 1 × 10^-8 M stays under 80%, and Yes if its % inhibition of farnesyltransferase at 1 × 10^-8 M is 80% or above.

# Smiles, Tested On, Category Label
records = [
    ("CCSC[C@H](CC1CCCCC1)N(C=O)Cc1ccc(C(=O)N[C@@H](CCSC)C(=O)O)c(-c2ccccc2C)c1", "protein farnesyltransferase (Rattus norvegicus, UniProt Q02293+Q04631)", "No"),
    ("CSCC[C@H](NC(=O)c1ccc(CN(CCC2CCCCC2)C(=O)c2ccccc2)cc1-c1ccccc1C)C(=O)O", "protein farnesyltransferase (Rattus norvegicus, UniProt Q02293+Q04631)", "Yes"),
    ("CSCC[C@H](NC(=O)c1ccc(COCc2cccc(C(C)C)c2)cc1-c1ccccc1C)C(=O)[O-].[Li+]", "protein farnesyltransferase (Rattus norvegicus, UniProt Q02293+Q04631)", "No"),
    ("CSCC[C@H](NC(=O)c1ccc(CN(CCC2CCCCC2)S(=O)(=O)c2ccccc2)cc1-c1ccccc1C)C(=O)O", "protein farnesyltransferase (Rattus norvegicus, UniProt Q02293+Q04631)", "Yes"),
    ("CCSC[C@H](CCc1ccccc1)NCc1ccc(C(=O)N[C@@H](CCSC)C(=O)O)c(-c2ccccc2C)c1", "protein farnesyltransferase (Rattus norvegicus, UniProt Q02293+Q04631)", "Yes"),
    ("CSCC[C@H](NC(=O)c1ccc(COCc2occc2-c2ccc(Cl)cc2)cc1-c1ccccc1C)C(=O)[O-].[Li+]", "protein farnesyltransferase (Rattus norvegicus, UniProt Q02293+Q04631)", "No"),
]

----------
# % inhibition of farnesyltransferase at 1 × 10^-7 M per record follows
Target: protein farnesyltransferase (Rattus norvegicus, UniProt Q02293+Q04631)
Construct: The enzyme is purified according to Reiss, Y., et al., Cell, 62: 81-88 (1990), utilizing steps one through three; from tissue; host or cells: rat brain
Test: Inhibition of farnesyltransferase (scintillation proximity assay, rat brain enzyme, biotin-K Ras B fragment substrate)
Assay type: biochemical
Conditions: 1 × 10^-7 M (Table 3)
Measurement Type: % inhibition of farnesyltransferase at 1 × 10^-7 M (%)

# Compound, Tested On, Measured Number
records = [
    ("CSCC[C@H](NC(=O)c1ccc(COCc2cc3ccccc3o2)cc1-c1ccccc1C)C(=O)[O-].[Li+] [Example 533]", "protein farnesyltransferase (Rattus norvegicus, UniProt Q02293+Q04631)", 91),
    ("CCCCC(OCc1ccc(C(=O)N[C@@H](CCSC)C(=O)[O-])c(-c2ccccc2C)c1)c1ccco1.[Li+] (stereo partly shown) [Example 825]", "protein farnesyltransferase (Rattus norvegicus, UniProt Q02293+Q04631)", 79),
    ("CSCC[C@H](NC(=O)c1ccc(COCc2ccc(-c3cccc(C(F)(F)F)c3)o2)cc1-c1ccccc1C)C(=O)[O-].[Li+] [Example 441]", "protein farnesyltransferase (Rattus norvegicus, UniProt Q02293+Q04631)", 91),
    ("CSCC[C@H](NC(=O)c1ccc(COCc2cccc(C)c2)cc1-c1ccccc1C)C(=O)[O-].[Li+] [Example 578]", "protein farnesyltransferase (Rattus norvegicus, UniProt Q02293+Q04631)", 90),
    ("COc1ccc(COCc2ccc(C(=O)N[C@@H](CCSC)C(=O)[O-])c(-c3ccccc3C)c2)cc1.[Li+] [Example 935]", "protein farnesyltransferase (Rattus norvegicus, UniProt Q02293+Q04631)", 72),
    ("CSCC[C@H](NC(=O)c1ccc(CSc2nnc[nH]2)cc1-c1ccccc1C)C(=O)O [Example 735]", "protein farnesyltransferase (Rattus norvegicus, UniProt Q02293+Q04631)", 96),
    ("CSCC[C@H](NC(=O)c1ccc(CN[C@H](CSc2ccccc2)CC2CCCCC2)cc1-c1ccccc1C)C(=O)O [Example 623]", "protein farnesyltransferase (Rattus norvegicus, UniProt Q02293+Q04631)", 96),
]

----------
# % inhibition of farnesyltransferase at 1 × 10^-7 M per record follows
Biological target: protein farnesyltransferase (Rattus norvegicus, UniProt Q02293+Q04631)
Construct: The enzyme is purified according to Reiss, Y., et al., Cell, 62: 81-88 (1990), utilizing steps one through three; from tissue; host or cells: rat brain
Test: Inhibition of farnesyltransferase (scintillation proximity assay, rat brain enzyme, biotin-K Ras B fragment substrate)
Assay type: biochemical
Details: 1 × 10^-7 M (Table 3)
Measurement Type: % inhibition of farnesyltransferase at 1 × 10^-7 M

# Molecule, Tested On, Result
data = [
    ("CSCC[C@H](NC(=O)c1ccc(COCCc2ccc(Cl)cc2)cc1-c1ccccc1C)C(=O)[O-].[Li+]", "protein farnesyltransferase (Rattus norvegicus, UniProt Q02293+Q04631)", "95%"),
    ("CCS(=O)(=O)C[C@H](CC1CCCCC1)NCc1ccc(C(=O)N[C@@H](CCS(C)(=O)=O)C(=O)O)c(-c2ccccc2C)c1", "protein farnesyltransferase (Rattus norvegicus, UniProt Q02293+Q04631)", "98%"),
    ("CSCC[C@H](NC(=O)c1ccc(COc2cccc3ccccc23)cc1-c1ccccc1C)C(=O)O", "protein farnesyltransferase (Rattus norvegicus, UniProt Q02293+Q04631)", "81%"),
    ("CSCC[C@H](NC(=O)c1ccc(CSC2=NCCS2)cc1-c1ccccc1C)C(=O)O", "protein farnesyltransferase (Rattus norvegicus, UniProt Q02293+Q04631)", "96%"),
    ("CSCC[C@H](NC(=O)c1ccc(COCc2ccc(-c3ccc(Cl)cc3)o2)cc1-c1ccccc1C)C(=O)O", "protein farnesyltransferase (Rattus norvegicus, UniProt Q02293+Q04631)", "97%"),
    ("CCSC[C@H](CC(C)C)N(C)Cc1ccc(C(=O)N[C@@H](CCSC)C(=O)O)c(-c2ccccc2C)c1", "protein farnesyltransferase (Rattus norvegicus, UniProt Q02293+Q04631)", "88%"),
    ("CSCC[C@H](NC(=O)c1ccc(CN[C@H](CSC(C)(C)C)CC2CCCCC2)cc1-c1ccccc1C)C(=O)O", "protein farnesyltransferase (Rattus norvegicus, UniProt Q02293+Q04631)", "95%"),
    ("CSCC[C@H](NC(=O)c1ccc(NC(=O)CN)cc1-c1ccccc1)C(=O)O", "protein farnesyltransferase (Rattus norvegicus, UniProt Q02293+Q04631)", "56%"),
    ("CCSCC(CC1CCCCC1)N(Cc1ccc(C(=O)N[C@@H](CCSC)C(=O)O)c(-c2ccccc2C)c1)CC(C)C (stereo partly shown)", "protein farnesyltransferase (Rattus norvegicus, UniProt Q02293+Q04631)", "80%"),
    ("CSCC[C@H](NC(=O)c1ccc(CN(CCC23CC4CC(CC(C4)C2)C3)c2ccccc2)cc1-c1ccccc1C)C(=O)O", "protein farnesyltransferase (Rattus norvegicus, UniProt Q02293+Q04631)", "82%"),
    ("CSCC[C@H](NC(=O)c1ccc(CN(CCC2CCCCC2)C(C)=O)cc1-c1ccccc1C)C(=O)[O-].[Li+]", "protein farnesyltransferase (Rattus norvegicus, UniProt Q02293+Q04631)", "95%"),
    ("CSCC[C@H](NC(=O)c1ccc(COCc2cccc3ccccc23)cc1-c1ccccc1C)C(=O)[O-].[Li+]", "protein farnesyltransferase (Rattus norvegicus, UniProt Q02293+Q04631)", "96%"),
    ("CSCC[C@H](NC(=O)c1ccc(CN[C@H](CCCC(C)C)CC2CCCCC2)cc1-c1ccccc1C)C(=O)O", "protein farnesyltransferase (Rattus norvegicus, UniProt Q02293+Q04631)", "97%"),
    ("CCSC[C@H](CC1CCCCC1)N(Cc1ccc(C(=O)N[C@@H](CCSC)C(=O)O)c(-c2ccccc2C)c1)C(=O)c1ccccc1", "protein farnesyltransferase (Rattus norvegicus, UniProt Q02293+Q04631)", "57%"),
    ("CSCC[C@H](NC(=O)c1ccc(COCc2cnc(-c3ccc(Cl)cc3)o2)cc1-c1ccccc1C)C(=O)[O-].[Li+]", "protein farnesyltransferase (Rattus norvegicus, UniProt Q02293+Q04631)", "89%"),
    ("CSCC[C@H](NC(=O)c1ccc(COC2CCC(NC(=O)OC(C)(C)C)CC2)cc1-c1ccccc1C)C(=O)[O-].[Li+] (stereo partly shown)", "protein farnesyltransferase (Rattus norvegicus, UniProt Q02293+Q04631)", "60%"),
    ("CSCC[C@H](NC(=O)c1ccc(CNc2ccc(Oc3ccccc3)cc2)cc1-c1ccccc1C)C(=O)O", "protein farnesyltransferase (Rattus norvegicus, UniProt Q02293+Q04631)", "84%"),
    ("CCCCS(=O)(=O)N(Cc1ccc(C(=O)N[C@@H](CCSC)C(=O)O)c(-c2ccccc2C)c1)[C@H](CSCC)CC1CCCCC1", "protein farnesyltransferase (Rattus norvegicus, UniProt Q02293+Q04631)", "71%"),
    ("CSCC[C@H](NC(=O)c1ccc(COCc2cnc(-c3ccc(F)cc3)s2)cc1-c1ccccc1C)C(=O)O", "protein farnesyltransferase (Rattus norvegicus, UniProt Q02293+Q04631)", "95%"),
    ("CSCC[C@H](NC(=O)c1ccc(COCc2ccc(-c3cccc([N+](=O)[O-])c3)o2)cc1-c1ccccc1C)C(=O)[O-].[Li+]", "protein farnesyltransferase (Rattus norvegicus, UniProt Q02293+Q04631)", "92%"),
    ("CSCC[C@H](NC(=O)c1ccc(CNCCc2c[nH]c3ccccc23)cc1-c1ccccc1C)C(=O)O", "protein farnesyltransferase (Rattus norvegicus, UniProt Q02293+Q04631)", "89%"),
    ("CCCCN(CCCC)C(=O)CNCc1ccc(C(=O)N[C@@H](CCSC)C(=O)O)c(-c2ccccc2C)c1", "protein farnesyltransferase (Rattus norvegicus, UniProt Q02293+Q04631)", "85%"),
    ("COc1cccc(-c2ccc(COCc3ccc(C(=O)N[C@@H](CCSC)C(=O)[O-])c(-c4ccccc4C)c3)o2)c1.[Li+]", "protein farnesyltransferase (Rattus norvegicus, UniProt Q02293+Q04631)", "88%"),
    ("CSCC[C@H](NC(=O)c1ccc(CSc2nnc(N)s2)cc1-c1ccccc1C)C(=O)O", "protein farnesyltransferase (Rattus norvegicus, UniProt Q02293+Q04631)", "49%"),
    ("CSCC[C@H](NC(=O)c1ccc(COCc2cncs2)cc1-c1ccccc1C)C(=O)[O-].[Li+]", "protein farnesyltransferase (Rattus norvegicus, UniProt Q02293+Q04631)", "89%"),
    ("CSCC[C@H](NC(=O)c1ccc(COCc2ccc(-c3ccc(SC)cc3)o2)cc1-c1ccccc1C)C(=O)[O-].[Li+]", "protein farnesyltransferase (Rattus norvegicus, UniProt Q02293+Q04631)", "91%"),
    ("CSCC[C@H](NC(=O)c1ccc(CNC(CC2CCCCC2)C2CCCCC2)cc1-c1ccccc1C)C(=O)[O-].[Li+] (stereo partly shown)", "protein farnesyltransferase (Rattus norvegicus, UniProt Q02293+Q04631)", "95%"),
    ("CSCC[C@H](NC(=O)c1ccc(CN[C@H](CO)C2CCCCC2)cc1-c1ccccc1C)C(=O)O", "protein farnesyltransferase (Rattus norvegicus, UniProt Q02293+Q04631)", "97%"),
]
